B1: Hairpin Ribozyme (parent)
chain: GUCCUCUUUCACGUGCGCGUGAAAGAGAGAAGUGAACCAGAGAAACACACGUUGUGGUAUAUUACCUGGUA

variants of: B1; experiment: self-cleavage, relative activity (ratio to wild type); higher = more cleavage; co-transcriptional
Classify as follows. Reported self-cleavage greater than or equal to 0.7: condition met. Reported self-cleavage below: condition not met.

Request: Item A24U C37U with self-cleavage of 0.7 or above?
Response: condition met

Request: Identify whether the reported self-cleavage of the following variant is 0.7 or greater: A30G G68U
Response: condition not met

Request: # check: self-cleavage of U14C G54U is greater than or equal to 0.7
Response: condition not met

Request: Reported self-cleavage reaches at least 0.7 for C16A G17U ?
Response: condition met

Request: Reported self-cleavage at or above 0.7? U8A C66G
Response: condition not met

Others:
Request: self-cleavage >= 0.7 for `G13A` ?
Response: condition met

Request: Could you please find out whether A35U U53A has self-cleavage that meets 0.7 or exceeds it?
Response: condition met

Request: Kindly determine if self-cleavage recorded for U2C A30G is above or exactly 0.7.
Response: condition not met

Request: Please indicate if the recorded self-cleavage for C65U G68A meets or exceeds 0.7.
Response: condition not met

Request: Answer whether self-cleavage of G15C G34C is greater than or equal to 0.7.
Response: condition not met

Request: Given G21A C37G , state whether its self-cleavage is at least 0.7.
Response: condition not met

Request: Is it the case that G40A U58A has self-cleavage reaching or exceeding 0.7?
Response: condition not met
